# Tested on: HL-60
# PROTOCOL_SUMMARY: NCI tumour cell line growth inhibition, 48 h
The source made the active and inactive calls. Cut-off read from the data, not from the text of the source: active = GI50 up to about 1.1 µM and inactive = higher.
Classes used: true for active, false for inactive

[[record]]
compound = "C[C@H]1C[C@H]2[C@@H]3CCC4=CC(=O)C=C[C@]4(C)C3=CC[C@]2(C)[C@@]1(O)C(=O)CO"
qualitative_label = "false"

[[record]]
compound = "COC1(OC)c2occc2C(=N)c2ccc(=O)oc21"
qualitative_label = "false"

[[record]]
compound = "COC(=O)[C@@H]1C[C@@H](O)CN1C(=O)c1ccc([N+](=O)[O-])cc1[N+](=O)[O-]"
qualitative_label = "false"

[[record]]
compound = "O=C(O)CCCC(=O)Nn1c(Cc2ccc(Cl)cc2)n[nH]c1=O"
qualitative_label = "false"

[[record]]
compound = "COc1cc(/C=N/NC(=O)c2c(Cl)c(Cl)c(Cl)c(Cl)c2-c2nc3cc(C(=O)c4ccccc4)ccc3[nH]2)ccc1O"
qualitative_label = "false"

[[record]]
compound = "Cc1ccc(-c2cc(O)c3cc4c(cc3n2)OCO4)cc1"
qualitative_label = "true"

[[record]]
compound = "CCOP(=O)(OCC)[C@H]1OC(C)(C)O[C@@H]1CO"
qualitative_label = "false"

[[record]]
compound = "CCCOCN1COCN/C1=N\\C#N"
qualitative_label = "false"

[[record]]
compound = "CC(=O)CCC#Cc1ccccc1C(=O)C(C)=[N+]=[N-]"
qualitative_label = "false"

[[record]]
compound = "CCOC(=O)C1(C#N)C2(C#N)C(N)=NC(ON=C(C)C)(ON=C(C)C)C12C#N (stereo not drawn)"
qualitative_label = "false"

[[record]]
compound = "CCc1c(Cc2cc(C)cc(C)c2)n2c(nc1=O)SCC2CBr (stereo not drawn)"
qualitative_label = "false"

[[record]]
compound = "O=C(CCSC(CC(=O)c1ccc(Cl)cc1)c1ccc(Cl)cc1)Nc1ccc(Cl)cc1 (stereo not drawn)"
qualitative_label = "false"

[[record]]
compound = "O=C1c2ccccc2C(=O)N1Cc1ccccc1-c1c2nc(c(-c3ccccc3CN3C(=O)c4ccccc4C3=O)c3ccc([nH]3)c(-c3ccccc3CN3C(=O)c4ccccc4C3=O)c3nc(c(-c4ccccc4CN4C(=O)c5ccccc5C4=O)c4ccc1[nH]4)C=C3)C=C2"
qualitative_label = "false"

[[record]]
compound = "O=C1C2C3C=C4c5ccccc5N(c5ccccc5)C4(C2C(=O)N1c1ccc(Cl)cc1)[C@H]1C(=O)N(c2ccc(Cl)cc2)C(=O)[C@@H]31 (stereo partly drawn)"
qualitative_label = "false"

[[record]]
compound = "NC1=NN(c2ccccc2)C(=O)C1C(=O)CCC(=O)Nc1cccc(Cl)c1 (stereo not drawn)"
qualitative_label = "false"

[[record]]
compound = "C/C=C1/CN2CCC3(O)c4ccccc4N4C=C(C(=O)OC)C1CC2C43O (stereo not drawn)"
qualitative_label = "false"

[[record]]
compound = "O=C1OC(c2ccccc2)=N/C1=C\\c1cccc(F)c1"
qualitative_label = "false"

[[record]]
compound = "CCc1cccc(C)c1NC(=O)C1=C(C)NC(C)=C(C(=O)Nc2c(C)cccc2CC)C1c1ccc([N+](=O)[O-])cc1"
qualitative_label = "false"


----------
# Tested on: A498
# PROTOCOL_SUMMARY: NCI tumour cell line growth inhibition, 48 h
Activity calls are given as the source filed them. Cut-off read from the data, not from the text of the source: active = GI50 up to about 1.1 µM and inactive = higher.
Possible outcomes: yes (1) for active, no (0) for inactive

[[record]]
molecule = "C[C@]1(O)CC[C@H]2[C@@H]3CCc4cc(O)ccc4[C@H]3CC[C@@]21C"
qualitative_label = "yes (1)"

[[record]]
molecule = "CCOC(=O)[C-]([N+]#N)[Si](C)(C)C"
qualitative_label = "no (0)"

[[record]]
molecule = "O=c1c2cc(I)ccc2nc(S)n1Cc1ccccc1"
qualitative_label = "no (0)"

[[record]]
molecule = "O=C(O)C(Cc1ccc(O)c([N+](=O)[O-])c1)N1C(=O)c2ccccc2C1=O (centres undefined)"
qualitative_label = "no (0)"

[[record]]
molecule = "COc1ccc(/C(Cl)=C(\\C=O)c2ccc(OC)c(OC)c2)cc1OC"
qualitative_label = "no (0)"

[[record]]
molecule = "COc1ccc(C2=Cc3nc2c(-c2ccccc2)c2ccc([nH]2)c(-c2ccccc2)c2nc(c(-c4ccccc4)c4ccc([nH]4)c3-c3ccccc3)C=C2)cc1"
qualitative_label = "no (0)"

[[record]]
molecule = "OCC(O)C(OC1OC(CO)C(O)C(O)C1O)c1nn(-c2ccc(F)cc2)c2nc3cc(Cl)c(Cl)cc3cc12 (centres undefined)"
qualitative_label = "no (0)"

[[record]]
molecule = "Cc1ccc(Sc2ccc(C)cc2[N+](=O)[O-])c([N+](=O)[O-])c1"
qualitative_label = "no (0)"

[[record]]
molecule = "O=C(O)c1cc([N+](=O)[O-])cc2c(=O)c3cnccc3[nH]c12"
qualitative_label = "no (0)"

